# COMPOUND, melting point
rows = [
    ("N#CSc1sc(NC(=O)c2cccc(C(F)(F)F)c2)nc1C(F)(F)F [Compound 131]", "167 to 168 °C"),
    ("O=C(Nc1nc(C(F)(F)F)c(I)s1)c1cc(C(F)(F)F)cc(C(F)(F)F)c1 [Compound 102]", "172 to 173 °C"),
    ("O=C(Nc1nc(C(F)(F)F)c(Br)s1)c1cccs1 [Compound 34]", "184 to 185 °C"),
    ("O=C(Nc1nc(C(F)(F)F)c(Cl)s1)c1ccc(Cl)c([N+](=O)[O-])c1 [Compound 80]", "183 to 184 °C"),
]
